Target: Prostaglandin E2 receptor EP2 subtype (Homo sapiens)
Assay: EP2 receptor modulators, dose response, cell-based, human EP2, PGE2 EC50 shift (AID 1421)
Settings: EP2-expressing cells, PGE2 EC50 shift by compound; measured here: PGE2 EC50 at 6.7 uM compound
Tag: Fulfilled if measured PGE2 EC50 with compound is not below 1 nM, Not fulfilled if it is.

| Compound | System under test | Qualitative label |
| --- | --- | --- |
| COC(=O)c1c(NC(=O)C2CC2)sc2c1CCCC2 | Prostaglandin E2 receptor EP2 subtype (Homo sapiens) | Not fulfilled |
| Cn1cc(C2=C(c3ccc(Cl)cc3Cl)C(=O)NC2=O)c2ccccc21 | Prostaglandin E2 receptor EP2 subtype (Homo sapiens) | Not fulfilled |
| CCOC(=O)c1ccc(CN(Cc2ccc(C)cc2)S(=O)(=O)c2cccc([N+](=O)[O-])c2)cc1 | Prostaglandin E2 receptor EP2 subtype (Homo sapiens) | Fulfilled |
| CCn1ncc(Cl)c1C(=O)Nc1cc(Cl)ccc1Cl | Prostaglandin E2 receptor EP2 subtype (Homo sapiens) | Not fulfilled |
| Fc1cccc(CSc2ncnc3c2oc2ccccc23)c1 | Prostaglandin E2 receptor EP2 subtype (Homo sapiens) | Fulfilled |
| Cc1ccc(-n2c(SCC(=O)Nc3ccc4c(c3)OCO4)nnc2-c2ccoc2C)cc1 | Prostaglandin E2 receptor EP2 subtype (Homo sapiens) | Fulfilled |

Please indicate if the recorded PGE2 EC50 with compound for S=c1[nH]nc(C23CC4CC(CC(C4)C2)C3)n1Cc1ccco1 meets or exceeds 1 nM. Fulfilled

Please indicate if the recorded PGE2 EC50 with compound for C=CCn1c(-c2oc3nc(-c4ccccc4)cc(-c4ccccc4)c3c2N)n[nH]c1=S meets or exceeds 1 nM. Fulfilled

Please indicate if the recorded PGE2 EC50 with compound for CC(=O)c1sc2nc(-c3ccc(C)cc3)c3c(c2c1N)CCCC3 meets or exceeds 1 nM. Fulfilled

Please indicate if the recorded PGE2 EC50 with compound for S=c1[nH]cc(-c2ccccc2)n1-c1ccccc1 meets or exceeds 1 nM. Fulfilled

Please indicate if the recorded PGE2 EC50 with compound for O=C(c1ccc(Cl)cc1)c1oc2ccccc2c1CS(=O)c1ccccc1 (stereo unspecified) meets or exceeds 1 nM. Not fulfilled

====

Below, each of the molecules is paired with its reported PGE2 EC50 with compound value.
Target: Prostaglandin E2 receptor EP2 subtype (Homo sapiens) (UniProt P43116)
Sequence (P43116 whole entry, looked up): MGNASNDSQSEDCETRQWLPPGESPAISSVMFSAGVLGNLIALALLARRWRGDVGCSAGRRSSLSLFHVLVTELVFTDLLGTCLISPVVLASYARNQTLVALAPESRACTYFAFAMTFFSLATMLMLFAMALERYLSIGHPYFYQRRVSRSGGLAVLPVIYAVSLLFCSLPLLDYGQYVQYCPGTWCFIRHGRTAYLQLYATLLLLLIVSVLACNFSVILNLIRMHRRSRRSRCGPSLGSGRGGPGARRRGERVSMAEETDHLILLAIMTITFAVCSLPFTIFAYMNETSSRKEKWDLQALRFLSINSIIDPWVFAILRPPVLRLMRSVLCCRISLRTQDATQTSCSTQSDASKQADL
Assay: EP2 receptor modulators, dose response, cell-based, human EP2, PGE2 EC50 shift (AID 1421)
Settings: EP2-expressing cells, PGE2 EC50 shift by compound; measured here: PGE2 EC50 at 6.7 uM compound
Give the value in nM but do not write nM after it.

Use these answered entries as a reference point.
| Molecule | PGE2 EC50 with compound, nM |
| --- | --- |
| Cc1ccc(-n2c(=S)[nH]c3c(oc4ccccc43)c2=O)cc1C | 1.76 |
| CC(=O)N(c1cccc(Br)c1)C1C=CS(=O)(=O)C1 (stereo not drawn) | 0.98 |

Given the entry Cc1ccc(C(=O)N2N=C(c3ccccc3)CC2(O)C(F)(F)F)o1 (stereo not drawn) , report its measured PGE2 EC50 with compound. 1.62

Given the entry O=C(CSc1nc2cc(Cl)ccc2s1)N1CCCc2ccccc21 , report its measured PGE2 EC50 with compound. 1.09

Given the entry Cn1nc(-c2ccccc2)c(-c2nc(-c3cccc(C(F)(F)F)c3)no2)c1Cl , report its measured PGE2 EC50 with compound. 0.81

Given the entry CCOC(=O)c1c(C2CC2)csc1NC(=O)CSCc1c(C)noc1C , report its measured PGE2 EC50 with compound. 1.25

Given the entry COc1cc(-c2noc(-c3cccc(Cl)c3)n2)cc(OC)c1OC , report its measured PGE2 EC50 with compound. 1.11

Given the entry Cc1cc(O)c(C=O)c2c1C(=O)Oc1c(COC(=O)/C=C/C(=O)O)c(O)c(C(=O)O)c(C)c1O2 , report its measured PGE2 EC50 with compound. 0.54

Given the entry Cn1c(=O)c2c(SCc3cccnc3)nc(CC(C)(C)C)nc2n(C)c1=O , report its measured PGE2 EC50 with compound. 2.57

Given the entry O=C(/C(=C/O)N=Nc1ccccc1)c1cccs1 , report its measured PGE2 EC50 with compound. 1.19

Given the entry c1ccc(CCc2ccccc2-c2nc(-c3cccnc3)no2)cc1 , report its measured PGE2 EC50 with compound. 0.84

Given the entry CC(C)n1c2ccccc2c2nnc(SCC(=O)Nc3ccccc3C(=O)O)nc21 , report its measured PGE2 EC50 with compound. 2.65

Given the entry COc1ccc(N=N/C(=C\O)C(=O)c2cccs2)cc1 , report its measured PGE2 EC50 with compound. 1.42

Given the entry Cc1ccccc1CN(C)CC(=O)Nc1ccccc1Oc1ccccc1 , report its measured PGE2 EC50 with compound. 1.12

Given the entry C=CCc1cc(C=O)cc(OC)c1OCc1ccc(Cl)cc1 , report its measured PGE2 EC50 with compound. 0.57

Given the entry Nc1ccc(Br)cc1C(=O)c1ccccc1 , report its measured PGE2 EC50 with compound. 0.43

Given the entry C/C(CCc1oc2ccc(Cl)cc2c1-c1ccc(C)o1)=N\O , report its measured PGE2 EC50 with compound. 0.81

Given the entry COc1ccccc1CN(C)CC(=O)Nc1ccccc1-c1ccccc1 , report its measured PGE2 EC50 with compound. 1.43

Given the entry Cc1cc(O)ccc1C1(c2ccc(O)cc2C)OC(=O)c2ccccc21 , report its measured PGE2 EC50 with compound. 0.55

====

Target: Prostaglandin E2 receptor EP2 subtype (Homo sapiens)
Assay: EP2 receptor modulators, dose response, cell-based, human EP2, PGE2 EC50 shift (AID 1421)
Details: EP2-expressing cells, PGE2 EC50 shift by compound; measured here: PGE2 EC50 at 6.7 uM compound
Below, each of the compounds is paired with its reported PGE2 EC50 with compound value.
Give the value in nM but do not write nM after it.

| Compound | PGE2 EC50 with compound (nM) |
| --- | --- |
| OC1(c2ccc(Br)cc2)CN(c2ccccc2)C2=[N+]1CCS2 (stereo not drawn) | 1.17 |
| O=C(COc1ccccc1)Nc1ccccc1N1CCN(c2ccccc2)CC1 | 1.48 |

Given the entry O=C(c1ccc(Br)o1)N(Cc1ccccc1)Cc1ccccc1 , report its measured PGE2 EC50 with compound. 0.77

Given the entry COc1cccc2[nH]c3c(N4CCC(C)CC4)ncnc3c12 , report its measured PGE2 EC50 with compound. 2.38

====

Biological target: Prostaglandin E2 receptor EP2 subtype (Homo sapiens) (UniProt P43116)
Experiment: EP2 receptor modulators, dose response, cell-based, human EP2, PGE2 EC50 shift (AID 1421)
Details: EP2-expressing cells, PGE2 EC50 shift by compound; measured here: PGE2 EC50 at 6.7 uM compound
Below, each of the compounds is paired with its reported PGE2 EC50 with compound value.
Give the value in nM but do not write nM after it.

Use these answered entries as a reference point.
| Compound | Reported result |
| --- | --- |
| COc1cccc2cc(/C(=N/O)c3ccccc3)oc12 | 1.51 |
| COC(=O)c1ccc(-c2ccco2)n1Cc1ccccc1Cl | 1.03 |

# context switch: different compound, same PGE2 EC50 with compound
Given the entry CCc1nc2c(cnn2-c2ccc(Cl)cc2)c(=O)n1-c1ccc(OC)cc1 , report its measured PGE2 EC50 with compound. 0.85

====

Below, each of the molecules is paired with its reported PGE2 EC50 with compound value.
Target: Prostaglandin E2 receptor EP2 subtype (Homo sapiens) (UniProt P43116)
Experiment: EP2 receptor modulators, dose response, cell-based, human EP2, PGE2 EC50 shift (AID 1421)
Settings: EP2-expressing cells, PGE2 EC50 shift by compound; measured here: PGE2 EC50 at 6.7 uM compound
Give the value in nM but do not write nM after it.

| Molecule | PGE2 EC50 with compound / nM |
| --- | --- |
| COc1ccccc1CNc1cc(C)ccc1C | 0.77 |
| CCn1c2ccc(OC)cc2c2nc3ccccc3nc21 | 2.47 |
| C=CCn1c(CCc2cc(C(C)(C)C)c(O)c(C(C)(C)C)c2)n[nH]c1=S | 1.14 |
| Clc1ccc(-c2nc3ccccn3c2CN2CCCCC2)cc1 | 1.26 |
| CC(C)C1(C)N=C(c2ncccc2C(=O)O)NC1=O (stereo unspecified) | 2.52 |

Given the entry COc1ccc(N2CCN(c3nc4c(c(=O)[nH]c(=O)n4C)n3Cc3cccc(C)c3)CC2)cc1 , report its measured PGE2 EC50 with compound. 0.7

Given the entry Cc1ccccc1NC(=O)/C(=C/c1ccccc1)c1ccccc1 , report its measured PGE2 EC50 with compound. 1.23

Given the entry Cc1ccccc1Cn1c(Cc2ccccc2)nc2ccccc21 , report its measured PGE2 EC50 with compound. 2.76

Given the entry CCOC(=O)c1c(-c2ccc(-c3ccccc3)cc2)csc1NC(=O)CCN1CCOCC1 , report its measured PGE2 EC50 with compound. 1.34

Given the entry CCN(CC)C(=O)CN(c1cc2c(cc1OC)oc1ccccc12)S(=O)(=O)c1ccc(C)cc1 , report its measured PGE2 EC50 with compound. 1.2

Given the entry CC1=C/C(=C(/c2ccc(O)c(C)c2)c2ccccc2C(=O)O)C=CC1=O , report its measured PGE2 EC50 with compound. 0.96

Given the entry OCCCNc1nc(-c2ccc(Cl)cc2)nnc1-c1ccc(Br)cc1 , report its measured PGE2 EC50 with compound. 1.11

Given the entry Cc1ccc(C2CC2c2n[nH]c(=S)n2-c2ccc(C)cc2)cc1 (stereo unspecified) , report its measured PGE2 EC50 with compound. 1.12

Given the entry Cc1cccc(/N=C/c2c(O)ccc3oc4c(c23)CCCC4)n1 , report its measured PGE2 EC50 with compound. 1.04

Given the entry CCOC(=O)C1=CN(CC2CCCO2)C=C(C(=O)OCC)C1c1ccccc1C(F)(F)F (stereo unspecified) , report its measured PGE2 EC50 with compound. 1.3

Given the entry Cc1cc(C)nc(SCc2nnc(SCC#N)n2-c2cccc(Cl)c2)n1 , report its measured PGE2 EC50 with compound. 2.76

Given the entry c1ccc(-c2nn3c(C4CCCCC4)nnc3s2)cc1 , report its measured PGE2 EC50 with compound. 1.07

Given the entry N#CCSc1nc2sc3c(c2c(=O)n1C1CCCCC1)CCCC3 , report its measured PGE2 EC50 with compound. 0.76

Given the entry CC1CCN(c2nc(-c3ccncc3)nc3ccccc23)CC1 , report its measured PGE2 EC50 with compound. 1

Given the entry CCCC/C(=N\NC(=O)c1ccc(Br)o1)c1ccccc1 , report its measured PGE2 EC50 with compound. 2.49
